Documented MIC across a set of compounds
Test system: E.cloacae 908SSi
PROTOCOL_NOTES: MIC, agar dilution method in Mueller Hinton agar
Format: cell-based
CONDITION_SUMMARY: Enterobacter cloacae; E.cloacae 908SSi; inoculum = 10^4 CFU/spot; read-out: MIC
MEASURE_NAME: MIC

>>> print(df.to_string())
                                   compound     target_entity  measure_name  recorded_value
0  C[n+]1cccc(N2CC/C(=C\C3=C(C(=O)[O-])N4C(=O)[C@@H](NC(=O)/C(=N\OCC(=O)O)c5csc(N)n5)[C@H]4CC3)C2=O)c1 [F]  E.cloacae 908SSi           MIC    ≤ 0.06 µg/mL
1  C[n+]1cccc(N2CC/C(=C\C3=C(C(=O)[O-])N4C(=O)[C@@H](NC(=O)/C(=N\OC5CCCC5)c5nsc(N)n5)[C@H]4CC3)C2=O)c1 [E]  E.cloacae 908SSi           MIC    ≤ 0.06 µg/mL
2  C[n+]1cccc(N2CC/C(=C\C3=C(C(=O)[O-])N4C(=O)[C@@H](NC(=O)/C(=N\O)c5csc(N)n5)[C@H]4CC3)C2=O)c1 [C]  E.cloacae 908SSi           MIC    ≤ 0.06 µg/mL
3  Nc1nc(/C(=N/O)C(=O)N[C@@H]2C(=O)N3C(C(=O)O)=C(/C=C4\CCN(c5ccc(O)cc5)C4=O)CC[C@H]23)cs1 [B]  E.cloacae 908SSi           MIC       0.5 µg/mL
4  C[n+]1ccc(N2CC/C(=C\C3=C(C(=O)[O-])N4C(=O)[C@@H](NC(=O)/C(=N\OC5CCCC5)c5csc(N)n5)[C@H]4CC3)C2=O)cc1 [G]  E.cloacae 908SSi           MIC    ≤ 0.06 µg/mL
5  C[n+]1cccc(N2CC/C(=C\C3=C(C(=O)[O-])N4C(=O)[C@@H](NC(=O)/C(=N\O)c5nsc(N)n5)[C@H]4CC3)C2=O)c1 [D]  E.cloacae 908SSi           MIC      0.12 µg/mL
